Quick reference for Inhibitory Ratio of AP-1 Activation(%) Drug Concentration 10 μg/mL among some molecules
- System: AP-1
- experimental.protocol: Inhibition of AP-1 activation by TNF α stimulation (pAP-1-Luc reporter, HeLa)
- Type: cell-based, human
- protocol.conditions: TNF-α (40 ng/ml), 4 hours, test compound 10 μg/mL
Write the number in % without appending the unit.

INSERT INTO measurements (structure_string, result) VALUES
  ('O=C(Nc1cc(C(F)(F)F)cc(C(F)(F)F)c1)c1cc(I)ccc1O', 82.4);

Let us move to another entry and its Inhibitory Ratio of AP-1 Activation(%) Drug Concentration 10 μg/mL.
**Query** Can you look up the measured Inhibitory Ratio of AP-1 Activation(%) Drug Concentration 10 μg/mL of "O=C(Nc1cc(C(F)(F)F)cc(C(F)(F)F)c1)c1cc(Cl)ccc1O" for me?
**Result** 89.1

* * *

- System: AP-1
- experimental.protocol: Inhibition of AP-1 activation by TNF α stimulation (pAP-1-Luc reporter, HeLa)
- Format: cell-based, human
- protocol.conditions: TNF-α (40 ng/ml), 4 hours, test compound 10 μg/mL
Parameter Inhibitory Ratio of AP-1 Activation(%) Drug Concentration 10 μg/mL: see the listing below.
Return type: number; implicit unit %.

Sample answers from the record:
INSERT INTO measurements (structure_string, result) VALUES
  ('O=C(Nc1cc(C(F)(F)F)cc(C(F)(F)F)c1)c1cc(-c2ccccc2)ccc1O', 60.9),
  ('O=C(Nc1cc(C(F)(F)F)cc(C(F)(F)F)c1)c1cc(C#Cc2ccccc2)ccc1O', 44.1);

**Query** For the compound shown here, "CCOC(=O)c1sc(NC(=O)c2cc(Br)ccc2O)nc1-c1ccccc1" , give the reported Inhibitory Ratio of AP-1 Activation(%) Drug Concentration 10 μg/mL.
**Result** 55.3

**Query** What does the record list as Inhibitory Ratio of AP-1 Activation(%) Drug Concentration 10 μg/mL for "CCOC(=O)c1sc(NC(=O)c2cc(-c3cccs3)ccc2O)nc1-c1ccccc1" ?
**Result** 7.0
